These measurements were taken from patent US20180099931A1.

Tested system: F508delCFTR (Homo sapiens, UniProt P13569, DEL508-508)
Construct: expressed in transfected cells; host or cells: CFBE41o- human lung-derived epithelial cells (CFBE4lo-F508delCFTR-HRP), doxycycline-inducible
Sequence (P13569 with tags, fused parts or gaps DEL508-508): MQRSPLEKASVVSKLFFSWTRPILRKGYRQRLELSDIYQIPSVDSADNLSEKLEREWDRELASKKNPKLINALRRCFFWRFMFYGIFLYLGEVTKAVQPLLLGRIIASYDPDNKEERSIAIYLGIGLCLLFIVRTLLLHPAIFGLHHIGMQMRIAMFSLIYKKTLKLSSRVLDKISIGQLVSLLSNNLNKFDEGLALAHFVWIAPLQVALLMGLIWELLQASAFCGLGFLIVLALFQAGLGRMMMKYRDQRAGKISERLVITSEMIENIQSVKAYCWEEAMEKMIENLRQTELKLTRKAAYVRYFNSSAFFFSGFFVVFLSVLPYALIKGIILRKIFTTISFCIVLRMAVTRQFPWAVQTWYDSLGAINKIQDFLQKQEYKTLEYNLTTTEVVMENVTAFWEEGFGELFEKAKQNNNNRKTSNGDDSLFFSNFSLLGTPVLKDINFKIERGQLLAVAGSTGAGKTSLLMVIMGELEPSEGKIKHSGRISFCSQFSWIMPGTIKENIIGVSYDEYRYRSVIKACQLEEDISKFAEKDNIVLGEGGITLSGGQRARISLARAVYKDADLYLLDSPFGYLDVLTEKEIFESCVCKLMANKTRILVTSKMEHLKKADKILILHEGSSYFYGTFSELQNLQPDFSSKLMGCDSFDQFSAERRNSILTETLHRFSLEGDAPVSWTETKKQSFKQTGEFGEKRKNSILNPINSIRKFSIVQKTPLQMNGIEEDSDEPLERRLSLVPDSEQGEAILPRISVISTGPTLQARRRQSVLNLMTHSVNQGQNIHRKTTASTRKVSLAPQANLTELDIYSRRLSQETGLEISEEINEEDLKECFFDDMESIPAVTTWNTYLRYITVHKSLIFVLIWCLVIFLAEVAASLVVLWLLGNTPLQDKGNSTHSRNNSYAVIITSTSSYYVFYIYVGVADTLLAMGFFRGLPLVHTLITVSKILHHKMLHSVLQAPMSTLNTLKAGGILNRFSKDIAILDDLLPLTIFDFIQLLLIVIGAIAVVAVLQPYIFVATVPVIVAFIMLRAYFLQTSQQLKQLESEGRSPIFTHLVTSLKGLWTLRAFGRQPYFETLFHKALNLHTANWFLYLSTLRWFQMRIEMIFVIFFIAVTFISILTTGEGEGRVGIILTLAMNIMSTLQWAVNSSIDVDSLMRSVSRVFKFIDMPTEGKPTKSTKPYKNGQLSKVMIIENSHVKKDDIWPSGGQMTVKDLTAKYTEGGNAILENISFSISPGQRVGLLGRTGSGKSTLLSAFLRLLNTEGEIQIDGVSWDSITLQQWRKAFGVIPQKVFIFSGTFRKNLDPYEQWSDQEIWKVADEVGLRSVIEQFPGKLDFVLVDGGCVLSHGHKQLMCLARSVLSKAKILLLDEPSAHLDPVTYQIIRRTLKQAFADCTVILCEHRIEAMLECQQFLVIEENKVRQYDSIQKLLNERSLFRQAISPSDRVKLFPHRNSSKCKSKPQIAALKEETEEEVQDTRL
Assay summary: Cell Surface Expression-Horse Radish Peroxidase (CSE-HRP) Assay;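 also: percent of the 2 µM on-plate positive control corrector response above DMSO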
Type: cell-based
Conditions: test compound without co-corrector; maximum at any tested concentration, normalized to on-plate positive control; read-out: Maximum % activity (without co-corrector)
Readout name: Emax

Some solved cases for reference:
The reported F508delCFTR (Homo sapiens, UniProt P13569, DEL508-508) Emax of COc1ccc(C(C)(C)C)cc1CN[C@H]1[C@H](C(C)(C)C)[C@@H](C(=O)O)N(C(=O)[C@H]2[C@H](C(F)(F)F)[C@H]3CC[C@@H]2O3)[C@H]1c1ccccc1 (relative stereo) is > 200%

The reported F508delCFTR (Homo sapiens, UniProt P13569, DEL508-508) Emax of `Cc1cc(C(F)(F)F)cc(N[C@H]2[C@H](C(C)(C)C)[C@@H](C(=O)O)N(C(=O)[C@H]3CCCCO3)[C@H]2c2cccnc2N(C)C)n1` is < 100%

The reported F508delCFTR (Homo sapiens, UniProt P13569, DEL508-508) Emax of `COc1ncc(C(F)(F)F)cc1N[C@H]1[C@H](C(C)(C)C)[C@@H](C(=O)O)N(C(=O)C2CCCCC2)[C@H]1c1cccnc1N(C)C` is < 100%

The reported F508delCFTR (Homo sapiens, UniProt P13569, DEL508-508) Emax of `COc1ncc(C2=CCOCC2)cc1CN[C@H]1[C@H](C(C)(C)C)[C@@H](C(=O)O)N(C(=O)C2CCCCC2)[C@H]1c1ccccc1` is < 100%

The reported F508delCFTR (Homo sapiens, UniProt P13569, DEL508-508) Emax of `CC(C)(C)[C@H]1[C@H](NCc2ccccc2C(F)F)[C@H](c2ccccc2)N(C(=O)C2CCCCC2)[C@@H]1C(=O)O` is < 100%

Provide the reported Emax of each entry below, same order.
1. COc1ccc(C23CC(C2)C3)cc1CN[C@H]1[C@H](C(C)(C)C)[C@@H](C(=O)O)N(C(=O)[C@H]2CCC[C@H](OC)C2)[C@H]1c1ccccc1
2. COc1ncc(C(F)(F)F)cc1CN[C@H]1[C@H](C(C)(C)C)[C@@H](C(=O)O)N(C(=O)OC(C)C)[C@H]1c1cccnc1N(C)C
3. COc1ccc(C(F)(F)F)cc1CN[C@@H]1[C@@H](C(C)(C)C)[C@H](C(=O)O)N(C(=O)C2C3COCC32)[C@@H]1c1ccccc1N(C)C (mixture of isomers)
4. COc1ncc(C(F)(F)F)cc1CN[C@H]1[C@H](C(C)(C)C)[C@@H](C(=O)O)N(C(=O)[C@@H]2CCCO2)[C@H]1c1cccnc1N(C)C
5. COc1ccc(C(C)(C)C)cc1CN[C@H]1[C@H](C(C)(C)C)[C@@](C)(C(=O)O)N(C(=O)[C@H](OC)c2ccccc2)[C@H]1c1ccccc1

> 200%
> 200%
> 200%
< 100%
< 100%

Provide the reported Emax of each entry below, same order.
1. COc1ncc(-c2cccc(F)c2F)cc1CN[C@H]1[C@H](C(C)(C)C)[C@@H](C(=O)O)N(C(=O)C2CCCCC2)[C@H]1c1ccccc1
2. COc1ccc(C(F)(F)F)cc1CN[C@H]1[C@H](C(C)(C)C)[C@@H](C(=O)O)N(C(=O)C2CCc3ccc(F)cc3O2)[C@H]1c1ccccc1 (stereo partly drawn)
3. COc1ccc(C(C)(C)C)cc1CN[C@H]1[C@H](C(C)(C)C)[C@@H](C(=O)O)N(C(=O)c2cnn(C(C)(C)C)c2C#N)[C@H]1c1ccccc1
4. COc1ccc2c(c1)[C@](C)(C(=O)N1[C@H](C(=O)O)[C@@H](C(C)(C)C)[C@H](NCc3cc(C(C)(C)C)ccc3OC)[C@@H]1c1cccnc1OC)CC2
5. COc1ccc(C(C)(C)C)cc1CN[C@H]1[C@H](C(C)(C)C)[C@@H](C(=O)O)N(C(=O)C(C)Sc2ccccc2)[C@H]1c1ccccc1 (stereo partly drawn)
6. COc1cc(C(F)(F)F)ccc1CN[C@H]1[C@H](C(C)(C)C)[C@@H](C(=O)O)N(C(=O)[C@@H]2CCCCO2)[C@H]1c1cccnc1N(C)C
7. COc1cnc(-c2ccc(C)cc2F)cc1CN[C@H]1[C@H](C(C)(C)C)[C@@H](C(=O)O)N(C(=O)C2CCCCC2)[C@H]1c1ccccc1

1. > 200%
2. < 100%
3. 100 to 200%
4. < 100%
5. > 200%
6. > 200%
7. 100 to 200%

Provide the reported Emax of each entry below, same order.
1. C=CCCOC(=O)N1[C@H](C(=O)O)[C@@H](C(C)(C)C)[C@H](NCc2cc(C(C)(C)C)ccc2OC)[C@@H]1c1ccccc1
2. CC(C)(C)[C@H]1[C@H](Nc2cncc3ccccc23)[C@H](c2ccccc2)N(C(=O)C2CCCCC2)[C@@H]1C(=O)O
3. COc1ccc(C(C)(C)C)cc1CN[C@H]1[C@H](C(C)(C)C)[C@@H](C(=O)O)N(C(=O)C2CCCCC2C)[C@H]1c1cccnc1N(C)C (stereo partly drawn)
4. COc1cccc([C@@H]2[C@H](Nc3cc(C(F)(F)F)cc(C)n3)[C@@H](C(C)(C)C)[C@H](C(=O)O)N2C(=O)C2CCCCO2)n1 (mixture of isomers)
5. COc1ccc(C(F)(F)F)cc1CN[C@H]1[C@H](C(C)(C)C)[C@@H](C(=O)O)N(C(=O)[C@H](C)c2ccccc2)[C@H]1c1cccnc1OC
6. CC(C)(C)NC(=O)c1ccc(N[C@H]2[C@H](C(C)(C)C)[C@@H](C(=O)O)N(C(=O)C3CCCCC3)[C@H]2c2ccccc2)nc1

1: > 200%; 2: < 100%; 3: > 200%; 4: < 100%; 5: 100 to 200%; 6: < 100%

The reported F508delCFTR (Homo sapiens, UniProt P13569, DEL508-508) Emax of `CCc1cc2ccc(Cl)cc2nc1N[C@H]1[C@H](C(C)(C)C)[C@@H](C(=O)O)N(C(=O)C2CCCCC2)[C@H]1c1ccccc1` is 100 to 200%
